Hi there, I'd appreciate the recorded Ki for every entry that follows.
- target: Autotaxin (Homo sapiens, UniProt Q13822)
- assay.method.text: Inhibition of human recombinant ATX lysophospholipase activity expressed in insect sf9 cells using FS-3 fluorogenic substrate preincubated for 10 mins measured after 5 and 25 mins by fluorometric analysis
One number for each entry, in µM.

CCCCCCCCCCCCCC(=O)Nc1ccc(C(O)P(=O)(O)O)cc1 (configuration not stated): 0.024

Then there is this compound:
[in] Record lookup: for Autotaxin (Homo sapiens, UniProt Q13822), what Ki belongs to CCCCCCCCCC(=O)Nc1ccc(C(O)P(=O)(O)O)cc1 (configuration not stated) ?
[out] 0.024
